Below, each entry is listed alongside its reported EC50.
target: ΔF508-CFTR (Homo sapiens, UniProt P13569, DEL508-508); construct: host or cells: CFBE41o- cells, doxycycline-inducible expression; experiment: CFTR cell surface levels using HRP-tagged ΔF508-CFTR expressing CFBE cells, intrinsic corrector capacity; assay type: cell-based; conditions: HRP-tagged ΔF508-CFTR expressing CFBE41o- cells; compounds alone (intrinsic corrector capacity); 20 hours at 33° C.
Expressed in µM, but write only the number.

| molecule | assay-system | readout | reported |
| --- | --- | --- | --- |
| CCS(=O)(=O)NC(=O)c1cc(-c2cnc(N(C)C)nc2)c2c(C3CN(C(=O)OC)C3)nn(C3CCCCC3)c2n1 [compound 52] | ΔF508-CFTR (Homo sapiens, UniProt P13569, DEL508-508) | EC50 | 11.5 |

Problem: Consider the molecule shown here: CS(=O)(=O)NC(=O)c1cc(N2CC3(CCOCC3)C2)c2c(C3CCC3)nn(-c3ccccc3)c2n1 [compound 204] What is its recorded EC50?
Solution: 0.978

Problem: Consider the molecule shown here: CC(C)N1CCC(c2cc(C(=O)NS(=O)(=O)N(C)C)nc3c2c(C2CCC2)nn3-c2ccc(F)cc2)CC1 [compound 598] What is its recorded EC50?
Solution: 10

Problem: Consider the molecule shown here: CN1CCN(Cc2cc(C(=O)NS(C)(=O)=O)nc3c2c(C2CCC2)nn3-c2ccc(F)cc2)CC1 [compound 518] What is its recorded EC50?
Solution: 10

Problem: Consider the molecule shown here: CN(C)S(=O)(=O)NC(=O)c1cc(C2CCN(CC3CC3)CC2)c2c(C3CCC3)nn(-c3ccc(F)cc3)c2n1 [compound 613] What is its recorded EC50?
Solution: 10

====

target: CFTR ΔF508 (Homo sapiens, UniProt P13569, DEL508-508); construct: bronchial epithelial cells isolated from CF patients homozygous for the CFTR ΔF508 mutation; McGill University; Asterand; University of North Carolina hAEC-CF; host or cells: primary human bronchial epithelial cells from CF patients homozygous for ΔF508; assay: Chronic TECC assay, primary bronchial epithelial cells from CF patients homozygous for CFTR ΔF508; assay type: cell-based; conditions: read-out: % Activity at 1 μM (AUC**)
Sequence (P13569 with tags, fused parts or gaps DEL508-508): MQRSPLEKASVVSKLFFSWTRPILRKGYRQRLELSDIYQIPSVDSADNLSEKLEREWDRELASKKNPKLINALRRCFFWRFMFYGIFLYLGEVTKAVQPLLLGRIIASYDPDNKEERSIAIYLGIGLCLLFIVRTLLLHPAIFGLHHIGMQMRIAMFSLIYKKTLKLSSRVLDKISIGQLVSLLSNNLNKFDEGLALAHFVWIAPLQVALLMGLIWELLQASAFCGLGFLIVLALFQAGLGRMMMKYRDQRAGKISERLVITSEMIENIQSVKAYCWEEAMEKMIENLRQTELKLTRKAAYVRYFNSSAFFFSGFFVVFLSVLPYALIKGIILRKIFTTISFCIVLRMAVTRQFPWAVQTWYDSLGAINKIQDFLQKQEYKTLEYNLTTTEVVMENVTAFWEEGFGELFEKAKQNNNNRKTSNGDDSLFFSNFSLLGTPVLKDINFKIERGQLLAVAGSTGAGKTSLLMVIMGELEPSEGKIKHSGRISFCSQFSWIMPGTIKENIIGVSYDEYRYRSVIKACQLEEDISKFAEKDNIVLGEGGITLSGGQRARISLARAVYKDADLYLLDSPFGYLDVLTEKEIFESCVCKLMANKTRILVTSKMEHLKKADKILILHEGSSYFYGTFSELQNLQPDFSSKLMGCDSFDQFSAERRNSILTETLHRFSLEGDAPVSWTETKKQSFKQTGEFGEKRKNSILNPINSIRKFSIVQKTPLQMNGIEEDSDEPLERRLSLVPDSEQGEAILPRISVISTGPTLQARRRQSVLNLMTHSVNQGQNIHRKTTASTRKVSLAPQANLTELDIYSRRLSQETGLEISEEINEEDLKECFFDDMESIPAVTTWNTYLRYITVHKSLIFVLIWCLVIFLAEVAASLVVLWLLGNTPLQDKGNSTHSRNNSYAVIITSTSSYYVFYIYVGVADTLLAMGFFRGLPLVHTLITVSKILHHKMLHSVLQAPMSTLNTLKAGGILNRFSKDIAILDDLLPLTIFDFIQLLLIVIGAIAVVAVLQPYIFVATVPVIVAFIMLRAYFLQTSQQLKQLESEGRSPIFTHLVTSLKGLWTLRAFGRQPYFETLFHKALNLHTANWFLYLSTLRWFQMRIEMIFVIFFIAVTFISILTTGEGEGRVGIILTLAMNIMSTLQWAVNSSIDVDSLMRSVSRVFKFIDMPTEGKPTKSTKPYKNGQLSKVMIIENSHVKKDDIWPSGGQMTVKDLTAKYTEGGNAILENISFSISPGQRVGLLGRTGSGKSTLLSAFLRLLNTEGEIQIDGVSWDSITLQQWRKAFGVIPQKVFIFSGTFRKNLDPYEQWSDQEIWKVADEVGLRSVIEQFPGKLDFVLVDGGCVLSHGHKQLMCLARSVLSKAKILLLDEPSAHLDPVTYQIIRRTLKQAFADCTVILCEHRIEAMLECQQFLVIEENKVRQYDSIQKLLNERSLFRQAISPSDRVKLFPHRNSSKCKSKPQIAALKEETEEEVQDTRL
readout: activity at 1 µM

Here's what some known entries look like.
| molecule | assay-system | activity at 1 µM |
| --- | --- | --- |
| COCC1CCN(c2cc(C(=O)NS(C)(=O)=O)nc3c2c(C2CCC2)nn3-c2ccccc2)CC1 | CFTR ΔF508 (Homo sapiens, UniProt P13569, DEL508-508) | 453% |
| COCC1CN(C2CCN(c3cc(C(=O)NS(=O)(=O)N(C)C)nc4c3c(C3CCC3)nn4-c3ccc(F)cc3)CC2)CCO1 (stereo not drawn) | CFTR ΔF508 (Homo sapiens, UniProt P13569, DEL508-508) | 370% |
| COCC1CCN(c2cc(C(=O)NS(=O)(=O)CCO)nc3c2c(C2CCC2)nn3-c2ccccc2)CC1 | CFTR ΔF508 (Homo sapiens, UniProt P13569, DEL508-508) | 428% |
| CS(=O)(=O)NC(=O)c1cc(N2CCC(N3CCOCC3)CC2)c2c(C3CCC3)nn(-c3ccccc3)c2n1 | CFTR ΔF508 (Homo sapiens, UniProt P13569, DEL508-508) | 532% |

Problem: Consider the molecule shown here: CC(C)Oc1nn(C2CCCCC2)c2nc(C(=O)NS(C)(=O)=O)cc(-c3ccc(C(=O)N4CC5CNCC5C4)cc3)c12 (stereo not drawn) What is its recorded activity at 1 µM?
Solution: 157%

Problem: Consider the molecule shown here: CS(=O)(=O)NC(=O)c1cc(N2CCC(CCN3CCOCC3)CC2)c2c(C3CCC3)nn(-c3ccccc3)c2n1 What is its recorded activity at 1 µM?
Solution: 537%

====

molecular target: ΔF508-CFTR (Homo sapiens, UniProt P13569, DEL508-508); construct: host or cells: CFBE41o- cells, doxycycline-inducible expression; assay: CFTR cell surface levels using HRP-tagged ΔF508-CFTR expressing CFBE cells, intrinsic corrector capacity; type: cell-based; design: concentration or dose not given beside the values; conditions: HRP-tagged ΔF508-CFTR expressing CFBE41o- cells; compounds alone (intrinsic corrector capacity); 20 hours at 33° C.
Please use rule met for % Activation under 200% and rule not met for everything else, ties included.

| compound | assay-system | assigned-category |
| --- | --- | --- |
| COCCS(=O)(=O)NC(=O)c1cc(N2CCC(N3CCOCC3)CC2)c2c(C3CCC3)nn(-c3ccc(F)cc3)c2n1 [compound 407] | ΔF508-CFTR (Homo sapiens, UniProt P13569, DEL508-508) | rule met |
| CC(C)Oc1nn(C2CCCCC2)c2nc(C(=O)NS(=O)(=O)N(C)C)cc(-c3ccc(CN4CCOCC4)cc3)c12 [compound 406] | ΔF508-CFTR (Homo sapiens, UniProt P13569, DEL508-508) | rule met |
| COCCS(=O)(=O)NC(=O)c1cc(-c2ccc(CN3CCOCC3)cc2)c2c(OC(C)C)nn(C3CCCCC3)c2n1 [compound 405] | ΔF508-CFTR (Homo sapiens, UniProt P13569, DEL508-508) | rule met |

Problem: Is % Activation of CC(C)Oc1nn(C2CCCCC2)c2nc(C(=O)NS(C)(=O)=O)cc(-c3ccc(C4(C#N)CCN(C)CC4)cc3)c12 [compound 639] strictly below 200%?
Solution: rule not met

Problem: Is % Activation of CN(C)S(=O)(=O)NC(=O)c1cc(N2CCC(CN3CCOCC3)CC2)c2c(C3CCC3)nn(-c3ccc(F)cc3)c2n1 [compound 409] strictly below 200%?
Solution: rule not met

Problem: Is % Activation of CCS(=O)(=O)NC(=O)c1cc(-c2ccc(OC)cc2)c2c(C)nn(-c3ccccc3)c2n1 [compound 15] strictly below 200%?
Solution: rule met
